Would you mind telling me the reported inhibition at 1 µM of each entry?
Target: UniProt:Q02763
Sequence (Q02763 23-1124): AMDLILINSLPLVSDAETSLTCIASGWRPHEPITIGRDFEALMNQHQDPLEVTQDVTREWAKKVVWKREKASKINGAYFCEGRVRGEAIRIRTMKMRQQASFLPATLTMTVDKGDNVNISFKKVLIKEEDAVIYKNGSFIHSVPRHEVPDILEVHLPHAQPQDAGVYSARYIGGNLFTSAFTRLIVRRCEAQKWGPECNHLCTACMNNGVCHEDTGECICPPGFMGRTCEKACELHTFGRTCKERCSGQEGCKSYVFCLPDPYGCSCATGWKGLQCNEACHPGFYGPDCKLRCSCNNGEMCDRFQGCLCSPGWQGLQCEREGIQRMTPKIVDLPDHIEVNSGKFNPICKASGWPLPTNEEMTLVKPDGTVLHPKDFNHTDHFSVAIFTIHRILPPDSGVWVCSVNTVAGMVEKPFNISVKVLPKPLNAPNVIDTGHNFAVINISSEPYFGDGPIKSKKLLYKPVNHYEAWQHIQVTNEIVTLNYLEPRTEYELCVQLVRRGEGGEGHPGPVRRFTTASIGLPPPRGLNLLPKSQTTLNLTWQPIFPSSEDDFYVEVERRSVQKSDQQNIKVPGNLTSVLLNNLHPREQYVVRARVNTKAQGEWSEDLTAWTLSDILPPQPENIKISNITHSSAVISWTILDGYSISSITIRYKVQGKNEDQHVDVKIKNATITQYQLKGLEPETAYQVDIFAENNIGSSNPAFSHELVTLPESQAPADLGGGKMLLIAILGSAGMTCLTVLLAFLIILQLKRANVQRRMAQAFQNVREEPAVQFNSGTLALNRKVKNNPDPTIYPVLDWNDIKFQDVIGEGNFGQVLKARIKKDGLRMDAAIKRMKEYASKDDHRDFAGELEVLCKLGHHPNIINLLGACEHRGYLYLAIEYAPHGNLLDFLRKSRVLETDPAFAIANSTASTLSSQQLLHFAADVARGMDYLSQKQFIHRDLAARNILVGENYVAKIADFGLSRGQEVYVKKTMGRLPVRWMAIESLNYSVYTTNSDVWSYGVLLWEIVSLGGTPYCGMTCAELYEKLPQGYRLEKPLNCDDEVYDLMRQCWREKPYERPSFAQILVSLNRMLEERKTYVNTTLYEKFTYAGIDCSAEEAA
Test: Kinase panel profiling at 1 µmol/L (MSA or IMAP), percentage inhibition
Format: biochemical
Settings: kinase TIE2; 1 µmol/L single concentration; read-out: %-inhibition at 1 µmol/L, TIE2
Give bare numbers, in %.

Illustrative cases are given below, each with its answer.
> print(dat)
                           structure.smiles     outcome.measure  unit.string  recorded.measurement
1  Cn1cnc2c(F)c(Nc3ccc(Br)cc3F)c(C(=O)NOCCO)cc21  inhibition at 1 µM            %                  2.63
2  C=CC(=O)N1CCC([C@@H]2CCNc3c(C(N)=O)c(-c4ccc(Oc5ccccc5)cc4)nn32)CC1  inhibition at 1 µM            %                     2

State the recorded inhibition at 1 µM for every item in the following list.
1. Cn1cnc2c(F)c(Nc3ccc(Br)cc3Cl)c(C(=O)NOCCO)cc21
2. FC(F)(F)c1ccc(CNc2ccc(Cc3c[nH]c4ncc(Cl)cc34)cn2)cn1
3. CCN1C(=O)N(c2c(F)c(OC)cc(OC)c2F)Cc2cnc3[nH]c(CN4CCOCC4)cc3c21

### Response
1. -9
2. 14
3. 28

State the recorded inhibition at 1 µM for every item in the following list.
1. O=C(Nc1cnn2ccc(N3CCC[C@@H]3c3cc(F)ccc3F)nc12)N1CC[C@H](O)C1
2. C[C@H]1Oc2cc(cnc2N)-c2c(nn(C)c2C#N)CN(C)C(=O)c2ccc(F)cc21

### Response
[1.84, 17]
